Measured composite z-score accompanies every entry in the list below.
- protocol-description: small-molecule microarray binders of probe aLefty2, primary screen, biochemical, biotinylated probe, 635/667 nm fluorescence (AID 1094);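 further: score merges spot fluorescence near 667 nm with spot signal-to-noise ratio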
- conditions: higher = more signal

compound="CCN(CC)c1ccc(N2CC=CC34O[C@@H]5C=CCCOC(=O)C5[C@H]3C(=O)N(CCCCCO)[C@@H]4C2=O)cc1 (stereo not given in full)" test_value=-0.126
compound=[N-]=[N+]=Nc1ccccc1[C@H]1OC(c2ccc(OCCCO)cc2)=N[C@@]1(CCS(=O)(=O)c1ccccc1)C(=O)O test_value=0.308
compound="CC(=O)C1=CCC(c2ccccc2)N(S(=O)(=O)c2ccc(C)cc2)C1 (stereo not given)" test_value=-0.0118
compound=C=CC[C@@]1(C(=O)N2CCOCC2)N=C(c2ccc(OCCCO)cc2)O[C@@H]1c1ccccc1N=[N+]=[N-] test_value=0.362
compound="[N-]=[N+]=NCc1ccccc1C[C@@]1(C(=O)NCC(O)CO)N=C(c2ccc(OCCCO)cc2)O[C@@H]1c1ccccc1CN=[N+]=[N-] (stereo not given in full)" test_value=0.0942

Could you now look at the following compound, please?
// field: composite z-score; key: `CCCCC=C[C@@H](NC(=O)c1cccs1)c1ccccc1` ; value = 0.0812

---

- measured-target: Homeobox protein Hox-A13 (Mus musculus) (UniProt Q62424)
- Sequence (Q62424 whole entry, looked up): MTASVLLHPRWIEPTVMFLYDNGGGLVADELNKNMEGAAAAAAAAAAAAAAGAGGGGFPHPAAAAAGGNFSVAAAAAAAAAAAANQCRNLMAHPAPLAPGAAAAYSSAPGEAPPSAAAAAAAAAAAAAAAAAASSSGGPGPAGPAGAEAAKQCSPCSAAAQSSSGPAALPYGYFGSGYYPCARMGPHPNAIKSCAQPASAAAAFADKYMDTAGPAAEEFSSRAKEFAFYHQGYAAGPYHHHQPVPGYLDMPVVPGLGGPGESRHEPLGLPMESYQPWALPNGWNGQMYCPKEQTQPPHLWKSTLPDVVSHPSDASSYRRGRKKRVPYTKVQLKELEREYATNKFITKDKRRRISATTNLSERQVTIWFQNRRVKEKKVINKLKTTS
- protocol-description: inhibitors of HoxA13-DNA binding, primary screen, biochemical, fluorescence polarization, labeled oligonucleotide (AID 1185)
- conditions: 15 min, higher = more signal, called active from +8 up or from −8 down
Measured z-score accompanies every entry in the list below.
// no unit string in output, number only

Observe how each entry below is paired with its result.
input_smiles=COc1ccc([Si](C)(C)[C@@H]2[C@@H](CCn3cc([C@H](O)c4ccccc4)nn3)O[C@]3(C(=O)N(Cc4ccc(N5C(=O)c6cccc7cccc5c67)cc4)c4ccccc43)[C@H]2C)cc1 measured_target="Homeobox protein Hox-A13 (Mus musculus) (UniProt Q62424)" test_readout=z-score test_value=0.474
input_smiles=CC(C)NC(=O)[C@@]1(Cc2ccccc2I)c2ccccc2C(=O)N(Cc2ccccc2)[C@H]1c1ccc(CO)cc1 measured_target="Homeobox protein Hox-A13 (Mus musculus) (UniProt Q62424)" test_readout=z-score test_value=-4.87

Could you now look at the following compound, please?
The value of z-score recorded for `C=CCOC(=O)[C@@H]1[C@H]2C(=O)O[C@H](c3ccccc3)[C@H](c3ccccc3)N2[C@H](c2ccc(OCCOC(=O)[C@@H]3C[C@@H]4C(=O)N[C@@H](Cc5ccccc5)C(=O)N4[C@@H]3c3cccc(OCCO)c3)cc2)[C@@]12C(=O)Nc1ccc(I)cc12` when tested on Homeobox protein Hox-A13 (Mus musculus) (UniProt Q62424) reads -0.282

---

- Test system: Wnt5a (protein binding on small-molecule microarray)
- protocol-description: Wnt5a binders on small-molecule microarray, primary screen, biophysical, 635/667 nm fluorescence (AID 1142);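 further: fluorescence read at 667 nm with signal to noise per printed feature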
- conditions: 635 nm fluorescence, higher = more signal
Measured composite z-score accompanies every entry in the list below.
// no unit string in output, number only

Observe how each entry below is paired with its result.
compound=N[C@@H](Cc1ccccc1)Cn1cc(-c2ccccc2)nn1 test_readout="composite z-score" test_value=-0.15
compound="COC(=O)c1ccc(C(O)C2C=CC3C(=O)N(c4ccccc4)C(=O)C3N2Nc2ccc(C#N)cc2)o1 (stereo unspecified)" test_readout="composite z-score" test_value=0.304
compound=C=C(C(=O)CC[C@H](OC(C)=O)c1ccc(OCCO)cc1)C(C)C test_readout="composite z-score" test_value=0.35
compound=O=C1C[C@]2(c3ccc([N+](=O)[O-])cc3)C(=O)N(CC(F)(F)F)c3cc(CO)ccc3[C@H]2N1CC12CC3CC(CC(C3)C1)C2 test_readout="composite z-score" test_value=-0.171
compound="C=CCC(OC(C)=O)[C@@H]1[C@@H](N(Cc2ccc(-c3ccccc3)cc2)C(=O)Cc2ccc(OC)cc2)c2cc(OCCCO)ccc2N1C(=O)c1ccc2ccccc2n1 (stereo partly specified)" test_readout="composite z-score" test_value=-0.167

The value of composite z-score recorded for `COc1ccc([Si](C)(C)[C@H]2[C@H](CCn3cc(CCO)nn3)O[C@@]3(C(=O)N(Cc4ccc(N5CCOC5=O)cc4)c4ccccc43)[C@@H]2C)cc1` when tested on Wnt5a (protein binding on small-molecule microarray) reads -0.0483

---

- protocol-description: CREB reporter modulators without forskolin, primary screen, cell-based, PC12, CRE-LacZ reporter, unstimulated (AID 1145)
- conditions: no forskolin, luminescence, 4.5 h, higher = more signal, called active from +8 up or from −8 down
test-readout: z-score
// no unit string in output, number only

Observe how each entry below is paired with its result.
compound=O=C(CS)NCCCCCCNC(=O)[C@H]1C[C@H]2C(=O)NCC(=O)N2[C@H]1c1ccc(O)cc1 test_value=0.692
compound="CC1CC/C=C\\[C@H]2OC34C=CCN(Cc5ccccc5)C(=O)[C@H]3N(CCCCCO)C(=O)[C@@H]4C2C(=O)O1 (stereo partly specified)" test_value=1
compound=CCCCCCc1nc(CCCc2cc3c(c(CCCCCC)n2)[Si](C(C)C)(C(C)C)OC3)cc2c1[Si](C(C)C)(C(C)C)OC2 test_value=1.78
compound=C=CC[C@@]1(C(=O)N2CCOCC2)N=C(c2ccc(OCCCO)cc2)O[C@@H]1c1ccccc1N=[N+]=[N-] test_value=-0.333
compound=CO[C@H]1O[C@H](CO)[C@@H](OC(=O)Nc2ccc3c(c2)OCO3)[C@H](OC(=O)Nc2ccccc2)[C@H]1OC(=O)Nc1ccccc1 test_value=1.16

Could you now look at the following compound, please?
// field: z-score; key: `C=C(CCCC)C(=O)CC[C@H](OC(=O)c1cccnc1)c1cccc(OCCO)c1` ; value = 11

---

- protocol-description: small-molecule microarray binders of probe aDKK1, primary screen, biochemical, biotinylated probe, 635/667 nm fluorescence (AID 1099);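 further: score merges 667nm spot fluorescence with signal to noise across triplicate slides; reference of the scale not given here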
- conditions: higher = more signal
Measured composite z-score accompanies every entry in the list below.
// no unit string in output, number only

input_smiles=CO[C@H]1O[C@H](CO)[C@@H](OC(=O)Nc2ccc3c(c2)OCO3)[C@H](OC(=O)Nc2ccccc2)[C@H]1OC(=O)Nc1ccccc1 test_value=0.132
input_smiles=Cc1ccc(S[C@]2(C(=O)NC3CC3)CC(=O)N(C3CCCCC3)[C@@H]2c2ccc(CO)cc2I)cc1 test_value=0.198

Could you now look at the following molecule, please?
// field: composite z-score; key: `Cc1ccc(S[C@]2(C(=O)NCc3ccccc3)CC(=O)N(Cc3ccccc3Cl)[C@@H]2c2ccc(CO)cc2I)cc1` ; value = 0.302

---

- protocol-description: E. coli acrAB mutant growth effects, primary screen, E. coli filamentation inducers, strain DRC39, OD650, 24 h (AID 1178);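 further: growth measured as culture turbidity by optical density at 650 nm; test concentration not given here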
- conditions: higher = more signal, called active from +8 up or from −8 down
test-readout: z-score
// no unit string in output, number only

Observe how each entry below is paired with its result.
compound="O=C1OCCC=C[C@H]2OC34C=CCN(Cc5ccccc5)C(=O)[C@H]3N(CCCCCCO)C(=O)[C@@H]4C12 (stereo partly drawn)" test_readout=z-score test_value=0.759
compound=COCC(=C=CC[C@@H](O)c1ccc(CO)o1)CCO test_readout=z-score test_value=1.13

// field: z-score; key: `O=C1O[C@@H](c2ccccc2)[C@@H](c2ccccc2)N2[C@@H](c3ccccc3OCCO)[C@]3(C(=O)Nc4ccc(C#CC5(O)CCCCCC5)cc43)[C@@H](C(=O)Nc3nc4ccccc4s3)[C@H]12` ; value = -0.994

---

- measured-target: NADPH oxidase 2 (Homo sapiens)
- protocol-description: NOX2-dependent H2O2 signal modulators, primary screen, NOX inhibitor project, cell-based, HEK293-NOX2, PMA-stimulated, Amplex Red fluorescence (AID 1159); further: test concentration not given here
- conditions: 45 min, higher = more signal, called active from +8 up or from −8 down
Activity calls are given as the source filed them.
Measured z-score accompanies every entry in the list below.

compound=[N-]=[N+]=NCc1ccccc1[C@@H]1OC(c2ccc(OCCCO)cc2)=N[C@]1(Cc1ccccc1)C(=O)N1CCCCC1 measured_target="NADPH oxidase 2 (Homo sapiens)" test_value="-0.84 (inactive)"
compound="COc1ccc(C(O)C2C=CC3C(=O)N(C)C(=O)C3N2Nc2ccccc2)cc1OCc1ccccc1 (stereo not drawn)" measured_target="NADPH oxidase 2 (Homo sapiens)" test_value="-1.25 (inactive)"
compound=COC(=O)[C@@]1(Cc2ccccc2N=[N+]=[N-])COC(c2ccc(OCCCO)cc2)=N1 measured_target="NADPH oxidase 2 (Homo sapiens)" test_value="-1.38 (inactive)"
compound=O=C1O[C@H](c2ccccc2)[C@H](c2ccccc2)N2[C@H]1[C@@H](C(=O)Nc1nc3ccccc3s1)[C@]1(C(=O)Nc3ccccc31)[C@H]2c1ccc(O)cc1 measured_target="NADPH oxidase 2 (Homo sapiens)" test_value="0.844 (inactive)"
compound=O=C1O[C@H](c2ccccc2)[C@H](c2ccccc2)N2[C@H]1[C@@H](C(=O)N1CCN(c3ncccn3)CC1)[C@]1(C(=O)Nc3ccccc31)[C@H]2c1ccc(OCCO)cc1 measured_target="NADPH oxidase 2 (Homo sapiens)" test_value="0.192 (inactive)"

Could you now look at the following compound, please?
The value of z-score recorded for COC(=O)c1ccc(C(O)C2C=CC3C(=O)N(C)C(=O)C3N2NC(=O)OC(C)(C)C)o1 (stereo not drawn) when tested on NADPH oxidase 2 (Homo sapiens) reads -0.786 (inactive)
